assay: UPLC-MS/MS quantification of berberine and metabolites in plasma; assay type: in vivo, Ross 308 broiler chickens; details: chickens fed 0.1, 0.5 or 1 g berberine/kg feed for 21 days; LOQ 0.1 ng/mL
value kind: Detection in plasma

molecule=COc1ccc2cc3n(c(=O)c2c1OC)CCc1cc2c(cc1-3)OCO2 experimental_value="not detected"
molecule="COc1cc2c(cc1OS(=O)(=O)[O-])-c1cc3ccc(OC)c(OC)c3c[n+]1CC2 [columbamine-sulfate]" experimental_value="not detected"

* * *

test: UPLC-MS/MS quantification of berberine and metabolites in ileal and caecal content; assay type: in vivo, Ross 308 broiler chickens; conditions: 0.1 g berberine/kg feed, 21 days
Recorded Ratio caecum / ileum (concentration) values for a group of molecules are listed next.
value kind: Ratio caecum / ileum (concentration)

molecule="COc1cc2c(cc1O)-c1cc3ccc(OC)c(OC)c3c[n+]1CC2 [Columbamine, columbamine]" experimental_value=0.27
molecule="COc1ccc2cc3n(c(=O)c2c1OC)CCc1cc2c(cc1-3)OCO2 [Oxyberberine, oxyberberine]" experimental_value=1.94
molecule="COc1ccc2cc3[n+](cc2c1OC)CCc1cc(O)c(O)cc1-3 [Demethyleneberberine]" experimental_value=15.66
molecule="COc1c(O)ccc2cc3[n+](cc12)CCc1cc2c(cc1-3)OCO2 [Thalifendine]" experimental_value=6.68
molecule="COc1ccc2cc3[n+](cc2c1O)CCc1cc2c(cc1-3)OCO2 [Berberrubine, berberrubine chloride]" experimental_value=21.43
molecule="COc1ccc2cc3[n+](cc2c1OC)CCc1cc2c(cc1-3)OCO2 [Berberine, Berberine chloride]" experimental_value=0.07
molecule="COc1ccc2c(c1OC)CN1CCc3cc4c(cc3C1=C2)OCO4 [Dihydroberberine, dihydroberberine]" experimental_value=0.75
molecule="COc1cc2c(cc1O)CC[n+]1cc3c(OC)c(OC)ccc3cc1-2 [Jatrorrhizine, Jatrorrhizine chloride]" experimental_value=0.31
